# System: Trypanosoma brucei
# testDescription: DNDI: Inhibition of Human African Trypanosomiasis, SBRI 427, in vitro at 2 ug.mL-1
# Type: functional
Among all 4,400 compounds or so, about 390 (8.9%) showed an effect of 50% or more. Many of the other results were omitted from the sample, so strong results are more common in it than they were.
experimentalEndpoint: % inhibition (%)
Answers are plain numbers, in %.

Solved cases below.
stdin: Specify % inhibition for COc1cccc(CN/C(=N\O)c2cccnc2Oc2ccc(Cl)cc2)c1 , system Trypanosoma brucei.
stdout: 98

stdin: Please look at CC(=O)c1ccc(N2CCN(Cc3coc(-c4ccccc4Cl)n3)CC2)cc1 and tell me its recorded % inhibition on Trypanosoma brucei.
stdout: -7

// for each molecule below, give its % inhibition
1. Cc1ccc(N2CCN(Cc3coc(-c4cccc(F)c4)n3)CC2)cc1C
2. N#CCCN(Cc1coc(-c2ccc(F)cc2)n1)c1ccccc1
3. Cc1cc(C)n(/C(=N\O)c2ccc(Oc3ccc(Cl)cc3)nc2)n1
4. CCN1CCN(Cc2coc(-c3ccc(Cl)cc3Cl)n2)CC1

stdout:
1: -4; 2: -10; 3: -5; 4: 22

---

# Tested on: Trypanosoma brucei
# testDescription: DNDI: Inhibition of Human African Trypanosomiasis, SBRI 427, in vitro at 2 ug.mL-1
# Format: functional
The campaign covered roughly 4,400 compounds. About 390 (8.9%) showed an effect of 50% or more. The list comes from a sample in which strong results are over-represented; it also holds close analogues and randomly drawn compounds.
Provide the reported % inhibition of each item.
Give bare numbers, in %.

The cases that follow already have their % inhibition on record.
stdin: Note % inhibition for the molecule shown: O/N=C(/c1cccnc1Oc1cccc(C(F)(F)F)c1)N1CCN(C2CCCC2)CC1
stdout: 85

stdin: Specify measured % inhibition for CCOc1ccccc1Oc1ncccc1/C(=N/O)N1CCC=N1 .
stdout: 13

stdin: Give the value of % inhibition reported for the following: CCN(/C(=N\O)c1cccnc1Oc1ccc2c(c1)CCCC2)C(C)C
stdout: 3

stdin: Could you please provide reported % inhibition for N/C(=N\O)c1cccnc1Oc1cccc(C(F)(F)F)c1 ? Thanks!
stdout: 46

stdin: Given the molecule O/N=C(\NCc1cc(F)ccc1F)c1ccc(Oc2ccc3ccccc3c2)nc1 , write its reported % inhibition.
stdout: 31

Consider the following items and state reported % inhibition for each.
1. O/N=C(/c1cccnc1Oc1ccccc1Cl)N1CCN(C2CCCC2)CC1
2. COCCCNCc1coc(-c2ccccc2)n1
3. COc1cc2c(cc1OC)C(C(C)C)N(Cc1coc(-c3ccc(C)cc3)n1)CC2 (stereo unspecified)
4. Cc1ccc(Oc2cc(/C(=N/O)NCc3cccnc3)ccn2)c(C)c1
5. Cc1cccc(N2CCN(Cc3coc(-c4ccccc4F)n3)CC2)c1C
6. Fc1cccc(-c2nc(CN3CCC4CCCCC4C3)co2)c1 (stereo unspecified)

stdout:
1. -2
2. 38
3. 27
4. -3
5. -33
6. 0

---

Please provide measured % inhibition for the entries that follow.
# Tested on: Trypanosoma brucei
# testDescription: DNDI: Inhibition of Human African Trypanosomiasis, SBRI 427, in vitro at 2 ug.mL-1
# Type: functional
Hit rate of the full screen: of about 4,400 compounds, about 390 (8.9%) showed an effect of 50% or more. The list comes from a sample in which strong results are over-represented; it also holds close analogues and randomly drawn compounds.
Give bare numbers, in %.

Here's what some known entries look like.
stdin: Write % inhibition of O/N=C(\NCc1ccncc1)c1cccnc1Oc1ccc2oc3ccccc3c2c1 ; system used: Trypanosoma brucei
stdout: 10

stdin: Look up Trypanosoma brucei data: % inhibition of O/N=C(\NC1CCN(Cc2ccccc2)C1)c1cccnc1Oc1ccccc1Cl (stereo unspecified) , then report it.
stdout: 2

stdin: Fill: % inhibition (Trypanosoma brucei) for this compound CCOc1ccc(-c2nc(CNC(CC)COC)co2)cc1 (stereo unspecified)
stdout: 21

stdin: Using Trypanosoma brucei as the test system, report measured % inhibition of CC(CCc1ccccc1)NCc1coc(-c2ccccc2Cl)n1 (stereo unspecified) .
stdout: 8

stdin: Write % inhibition of CN(Cc1ccco1)/C(=N\O)c1cccnc1Oc1ccc(Cl)cc1 ; system used: Trypanosoma brucei
stdout: 4

Lab note: each compound below needs its % inhibition filled in.
1. O/N=C(\NCc1cccs1)c1ccc(Oc2cccc3c2CCCC3)nc1
2. O/N=C(/c1ccc(Oc2cccc3c2CCCC3)nc1)N1CCCCC1
3. Brc1ccccc1-c1nc(CNCCC2=CCCCC2)co1
4. COc1ccc(OC)c(NCc2coc(-c3ccco3)n2)c1
5. Cc1cccc(-c2nc(CNCC(F)(F)F)co2)c1

stdout:
[4, 31, -2, -5, -2]

List the reported % inhibition of each compound below.
1. COc1ccc(Oc2ncccc2/C(=N/O)N(C)Cc2ccco2)cc1
2. CSc1ccc(Oc2nc(C)ccc2/C(=N/O)N(C)Cc2ccco2)cc1C
3. Fc1ccc(N2CCN(Cc3coc(-c4ccccc4Br)n3)CC2)cc1
4. Cc1ccccc1-c1nc(CNCCC2=CCCCC2)co1

stdout:
1: -11; 2: 12; 3: -6; 4: 10

---

Provide the recorded % inhibition for the entries that follow.
# Tested on: Trypanosoma brucei
# testDescription: DNDI: Inhibition of Human African Trypanosomiasis, SBRI 427, in vitro at 2 ug.mL-1
# Assay type: functional
In all, about 4,400 compounds went through this assay and about 390 (8.9%) showed an effect of 50% or more. Only a selection was taken, and strong results are over-represented in it overall.
Answers are plain numbers, in %.

Solved cases (2 shown):
stdin: Identify the reported % inhibition for the following entry. Cc1ccc(/C(=N/O)NC2CCc3ccccc32)c(Oc2cccc(F)c2)n1 (configuration not stated)
stdout: 23

stdin: Dear colleague, please send me the reported % inhibition for CC(C)COc1ncccc1/C(=N/O)NC1CCCCC1 when you can.
stdout: 82

Parameter requested: % inhibition. Apply to each item below.
1. COc1cc(-c2nc(CN3CCCc4ccccc43)co2)cc(OC)c1OC
2. CC(C)COc1ncccc1/C(=N/O)NC1CCCC1
3. CC(C)COc1ncccc1/C(=N/O)NC1CCN(Cc2ccccc2)C1 (configuration not stated)
4. CC(C)COc1ncccc1/C(=N/O)Nc1ccc(C(C)C)cc1
5. CC(C)COc1ncccc1/C(=N/O)NC1CCC1
6. CC(C)COc1ncccc1/C(=N/O)NC1CCC(C)CC1 (configuration not stated)
7. CC1CCC(N/C(=N\O)c2cccnc2OCC(C)(C)C)CC1 (configuration not stated)

stdout:
1: 6; 2: 97; 3: -2; 4: 2; 5: 97; 6: 83; 7: 5

Give % inhibition for all molecules that follow.
1. Cc1ccc(/C(=N/O)NC2CCCCC2)c(Oc2cccc(C(C)C)c2)n1
2. Cc1ccc(/C(=N/O)NC2CC2)c(Oc2ccc3ccccc3c2)n1
3. COc1cccc(-c2nc(CN(CCN(C)C)Cc3ccccc3)co2)c1

stdout:
1: 22; 2: 16; 3: 23

---

Consider the following compounds; for each one, report its % inhibition.
# Tested on: Trypanosoma brucei
# testDescription: DNDI: Inhibition of Human African Trypanosomiasis, SBRI 427, in vitro at 2 ug.mL-1
# Format: functional
The whole screen tested about 4,400 compounds, of which about 390 (8.9%) showed an effect of 50% or more. Only a selection was taken, and strong results are over-represented in it overall.
One number for each entry, in %.

Parameters: items (list). Returns: % inhibition for each item.
1. C=CCN1CCN(/C(=N\O)c2ccnc(Oc3ccc(C)c4c3CCC4)c2)CC1
2. Cc1ccc(Oc2ccc(/C(=N/O)NCC3CC3)cn2)c(C)c1
3. CC1CCC(N/C(=N\O)c2ccnc(Oc3ccc(F)c(Cl)c3)c2)CC1 (stereo not drawn)
4. CN(/C(=N\O)c1ccnc(Oc2ccc(F)c(Cl)c2)c1)C1CCCCC1
5. CN(/C(=N\O)c1ccc(Oc2c(F)c(F)cc(F)c2F)nc1)C1CCCCC1
6. Cc1ccc(-c2nc(CN3CCN(C(=O)C4CCCO4)CC3)co2)cc1 (stereo not drawn)

stdout:
1: 22; 2: 98; 3: 42; 4: 94; 5: 21; 6: 21

Dear colleague, could you send me % inhibition for each of the items below? Thanks.
1. Cc1ccc(Oc2ccc(/C(=N/O)NC3CC3)cn2)c(C)c1
2. FC(F)(F)c1ccc(CNCc2coc(-c3cccc4ccccc34)n2)cc1
3. O/N=C(\NC1CCCC1)c1ccnc(Oc2ccc(F)c(Cl)c2)c1
4. CCOc1ccccc1-c1nc(CN(C)CC2OCCO2)co1

stdout:
1. 26
2. 3
3. 96
4. -5

---

Exercise: for every item that follows, state its recorded % inhibition.
# Tested on: Trypanosoma brucei
# testDescription: DNDI: Inhibition of Human African Trypanosomiasis, SBRI 427, in vitro at 2 ug.mL-1
# Assay type: functional
About 390 (8.9%) of roughly 4,400 compounds showed an effect of 50% or more. This is one part of a sample in which strong results are shown more often than they occur.
Answers are plain numbers, in %.

Example entries begin here.
stdin: Determine from records and report % inhibition for CCN(Cc1ccccc1)Cc1coc(-c2cccc(F)c2)n1
stdout: 14

stdin: Quick one: give measured % inhibition for COCC(C)N/C(=N\O)c1ccc(Oc2ccc3ccccc3c2)nc1 (stereo not given)
stdout: 76

stdin: Output measured % inhibition for this item: O/N=C(\NCc1ccncc1)c1ccc(Oc2ccc3oc4ccccc4c3c2)nc1
stdout: -14

stdin: Input CSc1ccccc1Oc1ncccc1/C(=N/O)Nc1ccccc1 , output reported % inhibition.
stdout: 71

stdin: # return recorded % inhibition for entry COc1cccc(CN/C(=N\O)c2ccc(Oc3ccc4oc5ccccc5c4c3)nc2)c1
stdout: 16

Can you give me % inhibition for all of these, one by one?
1. c1csc(-c2nc(CN3CCCCCCC3)co2)c1
2. Fc1cccc(-c2nc(CN(Cc3ccccn3)Cc3ccccn3)co2)c1
3. Clc1ccccc1-c1nc(CN2CCN(c3ccccn3)CC2)co1
4. O/N=C(\NC1CC1)c1ccc(Oc2ccc3oc4ccccc4c3c2)nc1
5. CN(/C(=N\O)c1ccc(Oc2ccc3oc4ccccc4c3c2)nc1)C1CCCCC1
6. CSc1ccccc1Oc1ncccc1/C(=N/O)N1CCN(c2ccccc2)CC1

stdout:
1. 3
2. 4
3. 4
4. 82
5. 22
6. 22

Your task in this section: give % inhibition for each listed record.
1. O/N=C(\Nc1ccon1)c1ccc(Oc2cccc3cccnc23)nc1
2. Oc1ccc(-c2nc(CNCc3ccccc3C(F)(F)F)co2)cc1
3. O/N=C(\NC1CCc2ccccc21)c1ccc(Oc2ccc3oc4ccccc4c3c2)nc1 (stereo not given)
4. Cc1ccc(N2CCN(Cc3coc(-c4ccc(OC(F)(F)F)cc4)n3)CC2)cc1C
5. Cc1cc(C)cc(Oc2ccc(/C(=N/O)N3CCN(c4ccccc4)CC3)cn2)c1

stdout:
1: 13; 2: 18; 3: 19; 4: 23; 5: 9

Could you tell me % inhibition for each of these compounds? They are listed below.
1. COc1ccc(-c2nc(CNCc3ccc(C(F)(F)F)cc3)co2)cc1
2. Cc1cn(Cc2coc(-c3cccc4ccccc34)n2)cn1
3. O/N=C(\NCc1cccnc1)c1ccc(Oc2ccc3oc4ccccc4c3c2)nc1
4. Cc1cc(C)cc(Oc2ccc(/C(=N/O)NC3CCCC3)cn2)c1
5. COc1ccc(-c2nc(CN(Cc3ccccn3)Cc3ccccn3)co2)cc1
6. COCCN(CCOC)Cc1coc(-c2ccc(Cl)cc2Cl)n1
7. Cc1cc(C)cc(Oc2ccc(/C(=N/O)Nc3ccccc3)cn2)c1

stdout:
[2, 1, 84, 98, 46, 6, 0]

For each of the compounds below, note its % inhibition.
1. Fc1ccc(-c2nc(CN(Cc3ccccn3)Cc3ccccn3)co2)cc1
2. CCOc1ccccc1-c1nc(CN(C)c2ccc(C)cc2)co1
3. Cc1ccc(/C(=N/O)N2CCCCC2)c(Oc2ccc3oc4ccccc4c3c2)n1
4. COc1ccc(Oc2ncccc2/C(=N/O)Nc2ccccc2)cc1

stdout:
48
-15
7
-9

Report % inhibition for every entry below.
1. CC(C)(C)CN/C(=N\O)c1ccc(Oc2ccc3oc4ccccc4c3c2)nc1
2. O/N=C(\NCc1ccccc1)c1ccc(Oc2c(F)c(F)cc(F)c2F)nc1
3. CCC(CC)N/C(=N\O)c1ccc(Oc2ccc3ccccc3c2)nc1
4. COc1ccccc1CCNCc1coc(-c2ccccc2Br)n1
5. COCC(C)N/C(=N\O)c1ccc(Oc2cc(C)cc(C(C)C)c2)nc1 (stereo not given)

stdout:
1. 8
2. 30
3. 32
4. 6
5. 18

Please state, for each entry, its recorded % inhibition.
1. CSc1ccccc1Oc1ncccc1/C(=N/O)N1CCOCC1
2. COc1ccccc1Oc1ncccc1/C(=N/O)Nc1ccccc1
3. O/N=C(\NCC1CCCCC1)c1ccc(Oc2ccc3ccccc3c2)nc1
4. COCCN(CCOC)Cc1coc(-c2cccc(C)c2)n1
5. Cc1ccc(/C(=N/O)NC2CCCCC2)c(OCc2cccc(F)c2)n1
6. O/N=C(\Nc1ccccc1)c1ccc(Oc2ccc3ccccc3c2)nc1

stdout:
8
62
6
13
-9
-7

Please go through the list and note % inhibition for each compound.
1. CCOc1ccc(-c2nc(CNCc3cccc(OC)c3OC)co2)cc1
2. O/N=C(\NCC1CCCO1)c1ccc(Oc2ccc3oc4ccccc4c3c2)nc1 (stereo not given)
3. Cc1cc(C)cc(Oc2nc(C)ccc2/C(=N/O)NCCN2CCOCC2)c1
4. O/N=C(\NC1CCC1)c1ccc(Oc2ccc3oc4ccccc4c3c2)nc1
5. Cc1cn(Cc2coc(-c3ccccc3Br)n2)c(C)n1

stdout:
1. 3
2. -8
3. 15
4. 94
5. 25

Hey, can you go through the list below and give me % inhibition for every item?
1. CN(Cc1ccco1)/C(=N\O)c1cccnc1Oc1ccc2c(c1)CCCC2
2. COC(=O)C1CCN(/C(=N\O)c2ccc(Oc3ccc(C)cc3C)nc2)CC1

stdout:
1: -1; 2: 11
